Tested on: Trypanosoma brucei rhodensiense (STIB 900 strain)
ASSAY COMMENT: African trypanosoma protozoa proliferation inhibition screening test
Type: cell-based
MEASUREMENT CONTEXT: STIB 900 bloodstream form, 72 hours, Alamar blue
Provide the recorded EC50 Trypanosoma brucei rhod. for the entries that follow.
Give the value in µg/mL but do not write µg/mL after it.

Request: I am curious: what EC50 Trypanosoma brucei rhod. value has been reported for `CCN1C(=O)/C(=c2/s/c(=C3/SCCN3C)c(=O)n2CC)S/C1=N\c1sc2cc(F)ccc2[n+]1C` ?
Result: 0.1485

Request: Note, next up: `CCN1C(=O)/C(=c2/s/c(=C3/C=CC=CN3C)c(=O)n2CC)S/C1=N\c1sc2cc(F)ccc2[n+]1C`
Result: 0.1585

Request: // same read-out, input: `CCn1c(=O)/c(=c2\nc3c(o2)=CC=CN3C)s/c1=C1\S/C(=N\c2scc[n+]2C)N(Cc2ccccc2)C1=O`
Result: 0.068

Request: For `CCN1C(=O)/C(=c2/s/c(=C3/SCCN3C)c(=O)n2CC)S/C1=N\c1sc2cc(OC)ccc2[n+]1C` then?
Result: 0.023

Request: Next up: `C=CCN1C(=O)/C(=c2/s/c(=C3/SCCN3C)c(=O)n2CC)S/C1=N\c1sc2cc(Cl)ccc2[n+]1C`
Result: 0.141

Request: Also need `CCN1C(=O)/C(=c2/s/c(=C3/C=CC=CN3C)c(=O)n2CC)S/C1=N\c1sc2ccccc2[n+]1C` , thanks.
Result: 0.0625

Request: And `CCN1C(=O)/C(=c2/s/c(=C3/C=CC=CN3C)c(=O)n2CC)S/C1=N\c1sc2cc(OC)ccc2[n+]1C` ?
Result: 0.042

====

System: Trypanosoma cruzi (Tulahuen C2C4 strain)
ASSAY COMMENT: American trypanosoma protozoa proliferation inhibition screening test
Format: cell-based
MEASUREMENT CONTEXT: EC50 rat L6 cells / EC50 American trypanosoma protozoa
Label scheme for Selective toxicity: lower than 30 is Not fulfilled, 30 and above is Fulfilled.

Request: Assess whether reported Selective toxicity for CCn1c(=O)/c(=C2\SCCN2C)s/c1=C1\S/C(=N\c2sc3cc(Cl)ccc3[n+]2C)N(C(C)C)C1=O [Compound B-37] sits at 30 or higher.
Result: Not fulfilled

Request: Query CCN1C(=O)/C(=c2\nc3c(s2)=CC=CN3C)S/C1=N\c1sc2ccccc2[n+]1C.[Cl-] [Compound A-21] next
Result: Fulfilled

Request: Repeat for the following compound: CCN1C(=O)/C(=c2\nc3c(s2)=CC=CN3C)S/C1=N\c1scc[n+]1C.[Cl-] [Compound A-20]
Result: Fulfilled

Request: Thanks! And CCN1C(=O)/C(=c2/s/c(=C3/SCCN3C)c(=O)n2CC)S/C1=N\c1sc2cc(Cl)ccc2[n+]1C [Compound B-12] ?
Result: Not fulfilled

Request: Next record, please: CCN1C(=O)/C(=C2\C=Cc3ccccc3N2C)S/C1=N\c1sc2cc(Cl)ccc2[n+]1C [Compound A-2]
Result: Not fulfilled

====

Record form. Attribute: EC50 cytotoxicity L6. Fill in for each entry.
Test system: Rat-derived L6 cells (rat skeletal myoblast cell)
ASSAY COMMENT: Rat L6 cell proliferation inhibition test
Type: cell-based
MEASUREMENT CONTEXT: Table 1, 72 hours, Alamar Blue
Field format: number, assumed µg/mL, no unit text.

Request: Would you mind telling me what EC50 cytotoxicity L6 value was observed for `CCN1C(=O)/C(=c2/s/c(=C3/SCCN3C)c(=O)n2CC)S/C1=N\c1sc2cc(OC)ccc2[n+]1C` ?
Result: 1.98

Request: Record: `CCN1C(=O)/C(=c2/s/c(=C3/C=CC=CN3C)c(=O)n2CC)S/C1=N\c1scc[n+]1C`
Result: 27.92

Request: Now this one: `CCN1C(=O)/C(=c2/s/c(=c3/nc4c(o3)=CC=CN4C)c(=O)n2CC)S/C1=N\c1scc[n+]1C`
Result: 69.34

====

System: Rat-derived L6 cells (rat skeletal myoblast cell)
ASSAY COMMENT: Rat L6 cell proliferation inhibition test
Type: cell-based
MEASUREMENT CONTEXT: Table 2, 72 hours, Alamar Blue
Please provide measured EC50 cytotoxicity L6 for the entries that follow.
// note: answer is a bare numeric in µg/mL

Request: # EC50 cytotoxicity L6 lookup, item `C=CCN1C(=O)/C(=c2/s/c(=C3/SCCN3C)c(=O)n2CC)S/C1=N\c1sc2cc(Cl)ccc2[n+]1C`
Result: 3.72

Request: Repeat for the following compound: `CCN1C(=O)/C(=c2/s/c(=C3/SCCN3C)c(=O)n2CC)S/C1=N\c1sc2cc(F)ccc2[n+]1C`
Result: 9.83

Request: Moving on to `CCN1C(=O)/C(=c2/s/c(=C3/C=CC=CN3C)c(=O)n2CC)S/C1=N\c1sc2ccccc2[n+]1C`
Result: 7.46
